Test system: mice
measurement-notes: Biological Example 5: acute toxicity experiment of single oral administration in mice
Type: in vivo
measurement-conditions: Male mice; Day 1; single oral 1000 mg/Kg; Mean ± SD
reported-endpoint: Daily Body Weight (g)
Give the value in g but do not write g after it.

Which Daily Body Weight reading was recorded for the compound CNc1cccc2c1C(=O)N(C1CCC(=O)N(CCOC)C1=O)C2=O (centres unmarked) [Example 2] ?
18.6

Record: COCCN1C(=O)CCC(N2C(=O)c3cccc(F)c3C2=O)C1=O (centres unmarked) [Example 4]
17.6

Would you kindly repeat that for Nc1cccc2c1C(=O)N(C1CCC(=O)N(CCO)C1=O)C2=O (centres unmarked) [Example 6] ?
18.4

Next: COCCN1C(=O)CCC(N2C(=O)c3ccc(O)c(N)c3C2=O)C1=O (centres unmarked) [Example 8]
18.0

Okay, and C[S+]([O-])CCN1C(=O)CCC(N2C(=O)c3cccc(N)c3C2=O)C1=O (centres unmarked) [Example 12] ?
18.5

----------
Test system: DNBS-Induced Inflammatory Bowel Disease Models in Rats
measurement-notes: Biological Example 3: DNBS-induced inflammatory bowel disease models in rats
Type: in vivo, Wistar rats
measurement-conditions: Day 7; 30 mg/Kg i.g. qd × 7; Mean ± SD
reported-endpoint: Body weight

For the compound COCCN1C(=O)CCC(N2C(=O)c3cccc(F)c3C2=O)C1=O (stereo not shown) , what Body weight is on record?
181.0 ± 12.2 g

Try this compound next: Nc1cccc2c1C(=O)N(C1CCC(=O)N(CCO)C1=O)C2=O (stereo not shown)
180.9 ± 15.5 g

What would you report for COCCCN1C(=O)CCC(N2C(=O)c3cccc(NC(C)=O)c3C2=O)C1=O (stereo not shown) ?
184.3 ± 13.8 g

Please give the result for COCCCCN1C(=O)CCC(N2C(=O)c3cccc(N)c3C2=O)C1=O (stereo not shown) too.
178.3 ± 20.7 g

Now try COCCN1C(=O)CCC(N2C(=O)c3ccc(F)cc3C2=O)C1=O (stereo not shown) .
173.5 ± 7.4 g

Same again, this time with COCCN1C(=O)CCC(N2C(=O)c3ccc(N)cc3C2=O)C1=O (stereo not shown)
173.5 ± 18.5 g

Also, COCCN1C(=O)CCC(N2C(=O)c3cccc(N)c3C2=O)C1=O (stereo not shown) please.
175.8 ± 8.2 g

----------
Test system: mice
measurement-notes: Biological Example 5: acute toxicity experiment of single oral administration in mice
Format: in vivo
measurement-conditions: Male mice; Day 6; single oral 1000 mg/Kg; Mean ± SD
reported-endpoint: Daily Body Weight (g)
Your answer should be a plain number; it is taken to be in g.

Entry under review: Nc1cccc2c1C(=O)N(C1CCC(=O)N(CCO)C1=O)C2=O (stereo not drawn) . Reported Daily Body Weight?
26.9

Param item: COCCN1C(=O)CCC(N2C(=O)c3c(N)ccc(O)c3C2=O)C1=O (stereo not drawn)
29.2

COCCN1C(=O)CCC(N2C(=O)c3ccc(F)c(N)c3C2=O)C1=O (stereo not drawn) , same question.
26.9

Now this one: COCCCCN1C(=O)CCC(N2C(=O)c3cccc(N)c3C2=O)C1=O (stereo not drawn)
27.1

Try this molecule next: COCCN1C(=O)CCC(N2C(=O)c3cccc(C)c3C2=O)C1=O (stereo not drawn)
28.1

What do you get for COCCN1C(=O)CCC(N2C(=O)c3ccc(O)c(N)c3C2=O)C1=O (stereo not drawn) ?
28.2

Thanks! And CNc1cccc2c1C(=O)N(C1CCC(=O)N(CCOC)C1=O)C2=O (stereo not drawn) ?
28.8

Try this molecule too: COCCN1C(=O)CCC(N2C(=O)c3cccc(O)c3C2=O)C1=O (stereo not drawn)
28.1

Here is the next molecule: CCOCCN1C(=O)CCC(N2C(=O)c3cccc(F)c3C2=O)C1=O (stereo not drawn)
29.0
